Just for reference, ChEMBL document CHEMBL1137922 is where these values come from.

# Tested on: KB
# assay.explanation: Concentration required to kill 50% of human epidermoid KBV1 cell lines containing very high levels of P-glycoprotein after 3 days of continuous exposure
# Format: functional, cell-based
# condition.set: 72 h
measurement.name: pIC50
Note on pIC50: it is the negative log10 of concentration, concentration in mol/L.

Problem: Find the recorded pIC50 belonging to CN[C@H](C(=O)N[C@H](C(=O)N(C)[C@H](/C=C(\C)C(=O)O)C(C)C)C(C)(C)C)C(C)(C)c1ccc(C)c(C)c1 and report it.
Result: 7.41

* * *

# reported pIC50; entries follow
# Tested on: KB85 (Homo sapiens)
# assay.explanation: Concentration required to kill human epidermoid KB85 cell lines containing moderate levels of P-glycoprotein after 3 days of continuous exposure
# condition.set: KB85, 72 h
Note on pIC50: it is the negative log10 of concentration, concentration in mol/L.

                              smiles_record  measurement_name  quantitative_result
0  CN[C@H](C(=O)N[C@H](C(=O)N(C)[C@H](/C=C(\C)C(=O)O)C(C)C)C(C)(C)C)C(C)(C)c1ccc(C)cc1             pIC50                 8.59

Problem: # query: pIC50 | item CN[C@H](C(=O)N[C@H](C(=O)N(C)[C@H](/C=C(\C)C(=O)O)C(C)C)C(C)(C)C)C(C)(C)c1cccc(C(C)=O)c1 | system: KB85 (Homo sapiens)
Result: 8.24

Problem: Repeat with CN[C@H](C(=O)N[C@H](C(=O)N(C)[C@H](/C=C(\C)C(=O)O)C(C)C)C(C)(C)C)C(C)(C)c1cccc(-c2ccccc2)c1
Result: 8.27

Problem: Repeat with CN[C@H](C(=O)N[C@H](C(=O)N(C)[C@H](/C=C(\C)C(=O)O)C(C)C)C(C)(C)C)C(C)(C)c1cccc(Cl)c1
Result: 8.49
